System Tested: sEH activity from liver cytosol of Hamster (Mesocricetus auratus, UniProt A0A1U7QV09)
Sequence (A0A1U7QV09 1-554): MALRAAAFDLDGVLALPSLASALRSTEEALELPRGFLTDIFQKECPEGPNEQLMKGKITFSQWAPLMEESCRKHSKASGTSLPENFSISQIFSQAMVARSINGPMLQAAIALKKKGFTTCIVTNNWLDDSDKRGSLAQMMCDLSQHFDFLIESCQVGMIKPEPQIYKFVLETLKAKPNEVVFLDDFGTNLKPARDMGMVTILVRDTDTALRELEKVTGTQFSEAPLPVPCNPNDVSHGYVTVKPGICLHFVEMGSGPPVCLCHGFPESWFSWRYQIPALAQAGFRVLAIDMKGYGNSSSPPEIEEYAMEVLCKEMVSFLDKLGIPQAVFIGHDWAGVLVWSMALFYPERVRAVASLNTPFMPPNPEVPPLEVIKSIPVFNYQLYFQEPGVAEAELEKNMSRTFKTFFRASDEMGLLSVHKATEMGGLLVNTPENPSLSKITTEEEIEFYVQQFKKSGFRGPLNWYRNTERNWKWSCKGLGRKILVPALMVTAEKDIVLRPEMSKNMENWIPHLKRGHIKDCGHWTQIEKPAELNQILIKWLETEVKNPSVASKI
Protocol Description: sEH inhibition potency (IC50), radioactive assay with [3H]t-DPPO, liver cytosol
Assay type: biochemical
Experimental Setup: [3H]t-DPPO ([S]final = 5 μM) as substrate
Assay Endpoint: IC50
Answer as a quantity: numeral, then unit.

The cases that follow already have their IC50 on record.
* O=C(Nc1ccc(OC(F)(F)F)cc1)N[C@H]1CC[C@H](Oc2ccc(C(=O)O)cc2)CC1 [1,728] | 5 nM
* O=C(O)CCCCCCCCCCCNC(=O)NC12CC3CC(CC(C3)C1)C2 [compound 700] | 5 nM
* O=C(NCCCCOc1ccc(F)cc1)NC12CC3CC(CC(C3)C1)C2 [1,707] | 2 nM

Now for the compound whose IC50 we want.
Data point: N#CNC(=O)CCCCCCCCCCCNC(=O)NC12CC3CC(CC(C3)C1)C2 [1,845] ; IC50 = 34 nM
